SYSTEM TESTED: Proteasome subunit beta (Trypanosoma cruzi) (UniProt O96673)
Sequence (O96673 as listed by the source): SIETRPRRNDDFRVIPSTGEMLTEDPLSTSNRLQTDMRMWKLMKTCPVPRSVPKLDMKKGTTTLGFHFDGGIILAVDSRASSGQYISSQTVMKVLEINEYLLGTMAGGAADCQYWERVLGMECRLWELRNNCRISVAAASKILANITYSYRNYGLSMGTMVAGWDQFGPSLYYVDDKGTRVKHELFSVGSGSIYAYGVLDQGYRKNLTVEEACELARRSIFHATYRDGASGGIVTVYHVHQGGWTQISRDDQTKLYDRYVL
METHOD NOTES: Trypanosoma cruzi proteasome chymotrypsin-like activity (TcProtChymo) assay. Further: in the data most compounds retested in dose-response had high values.
Assay type: functional
Set-up: scale not given: direction of the effect not stated beside the values
RECORDED CONDITIONS: 9.37 µM
MEASUREMENT TYPE: Percent Effect (%)
A number alone suffices; assume %.

Look over these answered cases.
[[record]]
compound = "Cc1cc(C)n(CC2CCCN2CCCS(N)(=O)=O)n1 (stereo unspecified)"
quantitative_result = 18.3

[[record]]
compound = "CCOC(=O)N1CCN(c2nc(NC)c3ccccc3n2)CC1"
quantitative_result = 6.1

[[record]]
compound = "COc1cc(C(=O)N2CCCC(CNS(C)(=O)=O)C2)cc(OC)c1C (stereo unspecified)"
quantitative_result = 1.26

[[record]]
compound = "c1cnc(N2CCC3(CC2)CN(CC2CC2)c2ccccc23)nc1"
quantitative_result = -0.0858

[[record]]
compound = "CCCn1ccc(C(=O)N2CCOC(c3nc(-c4cccs4)no3)C2)n1 (stereo unspecified)"
quantitative_result = 4.76

[[record]]
compound = "COc1cccc(C2CC(=O)Nc3nc(N)sc32)c1OC (stereo unspecified)"
quantitative_result = 10.3

[[record]]
compound = "Cc1cnn(CC2CCCN2Cc2coc(-c3ccccc3)n2)c1 (stereo unspecified)"
quantitative_result = 1.77

[[record]]
compound = "c1nc2c(c(C3CC3)n1)CCN(Cc1ccoc1)CC2"
quantitative_result = 6.59

[[record]]
compound = "Cc1cc(S(=O)(=O)N2CCC(S(C)(=O)=O)CC2)ccc1F"
quantitative_result = -2.96

[[record]]
compound = "COc1ccc(CNCc2c(C)nn(C)c2N2CCOCC2)cc1"
quantitative_result = 14.5


Note to self: Percent Effect recorded for CCc1ccc(O)c(C(=O)NC2CCN(Cc3ccncc3)CC2)c1 was 5.55

Note to self: Percent Effect recorded for CNC(=O)C1CCC(NC(=O)N(C)Cc2c(C)noc2C)CC1 (stereo unspecified) was 1.96

Note to self: Percent Effect recorded for CC(=O)NCCc1cc(N2CCN(C(C)=O)CC2)nc(C2CC2)n1 was 9.36

Note to self: Percent Effect recorded for Cc1nc(CN2CCN(C(=O)COCc3ccccc3)CC2)no1 was 9.19

---

Test system: Trypanosoma cruzi
METHOD NOTES: Trypanosoma cruzi phosphomannomutase and mannose-1-phosphate guanylyltransferase assay
Assay type: functional
Parameters: scale not given: direction of the effect not stated beside the values
RECORDED CONDITIONS: 10 µM
MEASUREMENT TYPE: Percent Effect (%)
A number alone suffices; assume %.

[[record]]
molecule = "CS(=O)(=O)N1CCC2(CC1)CC(CC(=O)N1CCCC1)c1ccccc12 (stereo not given)"
measurement_type = "Percent Effect"
quantitative_result = -2.43

[[record]]
molecule = "COc1ccc(-c2nc(CN3CCCC3Cn3cccn3)no2)cc1 (stereo not given)"
measurement_type = "Percent Effect"
quantitative_result = 8.99

[[record]]
molecule = "CN(C)[C@@H]1CCN(C(=O)NC2CCCC2)[C@H]1Cc1cnn(C)c1"
measurement_type = "Percent Effect"
quantitative_result = -0.197

[[record]]
molecule = "COCC1COCCC12CCN(C(=O)CCOc1ccccc1)CC2 (stereo not given)"
measurement_type = "Percent Effect"
quantitative_result = 8.2


With those in mind, consider the next molecule.
Note to self: Percent Effect recorded for Cc1ncsc1C(=O)NC1CCN(CC(=O)N(C)c2ccccc2)CC1 was -0.654

---

SYSTEM TESTED: Chromo domain-containing protein 1 (Saccharomyces cerevisiae (strain ATCC 204508 / S288c) (Baker's yeast))
METHOD NOTES: ScCHD-1 Enzyme Inhibition Assay; further: in the data most compounds retested in dose-response had high values
Format: functional
Design: scale not given: direction of the effect not stated beside the values
RECORDED CONDITIONS: 30 µM
MEASUREMENT TYPE: Percent Effect (%)
A number alone suffices; assume %.

Look over these answered cases.
[[record]]
molecule = "CCOCC1CN(C)Cc2cnn(CC3CCCC3)c21 (stereo unspecified)"
quantitative_result = -3.7

[[record]]
molecule = "Cc1ccc(CN(C)C(=O)CN2CCCC2Cn2cccn2)o1 (stereo unspecified)"
quantitative_result = -4.66

[[record]]
molecule = "CCN(CC(=O)NC)C(=O)Cc1nc(-c2ccco2)oc1C"
quantitative_result = -5.99

[[record]]
molecule = "CC(C)NC(=O)N1CCN(C(=O)N(C)C)CC2(CC(=O)N(C)C2)C1 (stereo unspecified)"
quantitative_result = -7.18

[[record]]
molecule = "CC(=O)N1CCCn2nc(CNS(=O)(=O)N3CCCCCC3)cc2C1"
quantitative_result = 2.81


With those in mind, consider the next molecule.
Note to self: Percent Effect recorded for O=C(N1CCCC1)N1CCc2ncnc(C3CCOC3)c2CC1 (stereo unspecified) was -1.1

---

System: Trypanosoma cruzi
METHOD NOTES: Trypanosoma cruzi phosphomannomutase and mannose-1-phosphate guanylyltransferase assay
Type: functional
Set-up: scale not given: direction of the effect not stated beside the values
RECORDED CONDITIONS: 10 µM
MEASUREMENT TYPE: Percent Effect (%)
A number alone suffices; assume %.

[[record]]
molecule = "O=C(CCCOc1ccccc1Cl)N1CCCC(n2cncn2)C1 (configuration not stated)"
measurement_type = "Percent Effect"
quantitative_result = 6.1

[[record]]
molecule = "Cc1ccoc1C(=O)NC1CCN(Cc2cccc3c2OCCO3)CC1"
measurement_type = "Percent Effect"
quantitative_result = 3.38

[[record]]
molecule = "CCc1ccc(CN2CCC3(CC2)CNC(=O)CO3)o1"
measurement_type = "Percent Effect"
quantitative_result = 1.76

[[record]]
molecule = "CN(C)CCN1C(=O)CCC12CCN(C(=O)c1cccnc1)CC2"
measurement_type = "Percent Effect"
quantitative_result = -0.75

[[record]]
molecule = "CCC1=N[C@@]2(CC[C@@H]3CN(C(=O)NCc4ccccc4)C[C@@H]32)C(=O)N1"
measurement_type = "Percent Effect"
quantitative_result = 1.66

[[record]]
molecule = "COc1ccc(C(C)NC(=O)Cn2ccc(=O)n(C)c2=O)cc1OC (configuration not stated)"
measurement_type = "Percent Effect"
quantitative_result = -2.8


Note to self: Percent Effect recorded for CN(C)Cc1nc(C(C)(C)NC(=O)C2CC(=O)N(CC3CC3)C2)no1 (configuration not stated) was -3.44

Note to self: Percent Effect recorded for COc1cc2nc(C)n(CC(=O)O)c(=O)c2cc1OC was -0.982

Note to self: Percent Effect recorded for Cn1cnnc1C1CCCN(C(=O)c2ccccc2Cl)C1 (configuration not stated) was 1.67

Note to self: Percent Effect recorded for CN(C)S(=O)(=O)N1C[C@@H]2CC[C@H](C1)N(Cc1ccc3nsnc3c1)C2 was 3.21

Note to self: Percent Effect recorded for CC(=O)N1CCN(C(=O)c2cc(-n3cnnn3)ccc2Cl)CC1 was -2.63

---

Tested on: Trypanosoma cruzi
METHOD NOTES: Trypanosoma cruzi phosphomannomutase and mannose-1-phosphate guanylyltransferase assay
Assay type: functional
Design: scale not given: direction of the effect not stated beside the values
RECORDED CONDITIONS: 10 µM
MEASUREMENT TYPE: Percent Effect (%)
A number alone suffices; assume %.

Look over these answered cases.
[[record]]
compound = "Cn1cnc2c1C(COCc1cccnc1)N(Cc1ccccn1)CC2 (centres undefined)"
measurement_type = "Percent Effect"
quantitative_result = 7.53

[[record]]
compound = "CC(C)(C)c1noc(CN2CCN(C(=O)c3cccs3)CC2)n1"
measurement_type = "Percent Effect"
quantitative_result = -4.68

[[record]]
compound = "O=C(c1ccsc1)N1CCc2c(COCc3ccncc3)cncc2C1"
measurement_type = "Percent Effect"
quantitative_result = -0.397

[[record]]
compound = "O=C(NC1CC(=O)N(Cc2cccc(F)c2)C1)c1ccncc1 (centres undefined)"
measurement_type = "Percent Effect"
quantitative_result = -1.93


Note to self: Percent Effect recorded for CN(c1ccc(C(=O)NCCCN2CCOCC2)c(Cl)c1)S(C)(=O)=O was 4.23

Note to self: Percent Effect recorded for O=C1NCC[C@]12CN(Cc1ccoc1)C[C@H]2c1ccccc1 was -8.38

Note to self: Percent Effect recorded for COc1ccccc1CC(=O)NCCCN1CCCC1C(=O)N(C)C (centres undefined) was 2.35

Note to self: Percent Effect recorded for Cc1cc(C2CCCN(CCCS(=O)(=O)c3ccccc3)C2)n[nH]1 (centres undefined) was -3.87

Note to self: Percent Effect recorded for Cc1cc(C)n(-c2cncc(NCCNC(=O)C(C)C)n2)n1 was -3.03

---

Let's look at some compounds and their measured Percent Effect.
SYSTEM TESTED: Protein translocase subunit SecA (Escherichia coli (strain K12)) (UniProt P10408)
Sequence (P10408 whole entry): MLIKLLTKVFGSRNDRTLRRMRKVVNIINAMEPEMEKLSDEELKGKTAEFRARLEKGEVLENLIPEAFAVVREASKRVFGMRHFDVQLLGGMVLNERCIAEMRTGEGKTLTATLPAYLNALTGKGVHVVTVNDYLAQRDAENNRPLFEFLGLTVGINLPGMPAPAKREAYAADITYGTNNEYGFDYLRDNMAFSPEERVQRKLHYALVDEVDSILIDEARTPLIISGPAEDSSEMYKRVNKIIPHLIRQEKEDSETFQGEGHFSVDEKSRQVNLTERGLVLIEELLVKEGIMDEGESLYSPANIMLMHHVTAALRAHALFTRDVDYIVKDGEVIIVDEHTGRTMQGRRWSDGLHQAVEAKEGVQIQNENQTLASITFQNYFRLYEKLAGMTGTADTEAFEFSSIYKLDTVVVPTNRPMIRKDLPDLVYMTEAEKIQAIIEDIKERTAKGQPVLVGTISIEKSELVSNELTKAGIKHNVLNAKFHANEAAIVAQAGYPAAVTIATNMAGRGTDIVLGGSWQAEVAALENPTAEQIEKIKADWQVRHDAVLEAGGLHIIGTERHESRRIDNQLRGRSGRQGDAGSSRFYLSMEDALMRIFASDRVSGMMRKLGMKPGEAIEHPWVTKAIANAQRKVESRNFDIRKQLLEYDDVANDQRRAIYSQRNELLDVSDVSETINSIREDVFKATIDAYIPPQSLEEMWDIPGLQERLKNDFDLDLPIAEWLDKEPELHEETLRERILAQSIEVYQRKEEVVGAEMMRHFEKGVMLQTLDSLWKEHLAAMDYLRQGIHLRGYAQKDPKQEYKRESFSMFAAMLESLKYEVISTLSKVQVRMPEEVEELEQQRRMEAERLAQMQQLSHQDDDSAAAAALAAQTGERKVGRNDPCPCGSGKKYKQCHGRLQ
METHOD NOTES: Assay to Identify E. coli SecA ATPase Inhibitors
Assay type: functional
Parameters: scale not given: direction of the effect not stated beside the values
RECORDED CONDITIONS: 30 µM
Entries with a potency or affinity are not part of this list.
A number alone suffices; assume %.

Look over these answered cases.
[[record]]
compound = "CCc1nc(CN2CCCN(C(=O)COCC3CC3)CC2)cs1"
endpoint_unit = "%"
quantitative_result = -1.44

[[record]]
compound = "COCCC(=O)N1CC2(CCN(Cc3ccoc3)C2)C1"
endpoint_unit = "%"
quantitative_result = -1.14


Note to self: Percent Effect recorded for CC(C)c1nc(C2CCCN2CC(=O)Nc2ccc(Cl)cn2)no1 (stereo not drawn) was -10.5
